Could you please report measured relative viability for the items listed next?
Test system: SW 1573
Assay: relative viability (nuclei count vs DMSO), 5 days (fraction); higher = more cells survive
Details: first compound 0.08 µM

Value lookup for relative viability; key = O=c1[nH]c2ccccc2n1C1CCN(CCCC(c2ccc(F)cc2)c2ccc(F)cc2)CC1 [Pimozide] + Cc1cc(Nc2cc(N3CCN(C)CC3)nc(Sc3ccc(NC(=O)C4CC4)cc3)n2)n[nH]1 [Tozasertib] (partner 0.1 µM)
0.132

Now consider Cc1cnc(-c2cnc(NCCNc3ccc(C#N)cn3)nc2-c2ccc(Cl)cc2Cl)[nH]1 + N=C(N)NC(=N)NCCc1ccccc1 [Phenformin] (partner 250 µM) and answer again.
0.515

Now consider Cc1cnc(-c2cnc(NCCNc3ccc(C#N)cn3)nc2-c2ccc(Cl)cc2Cl)[nH]1 + CC(C)C[C@H](NC(=O)[C@H](Cc1ccccc1)NC(=O)c1cnccn1)B(O)O [Bortezomib] (partner 0.002 µM) and answer again.
1.09

Now consider Cc1cnc(-c2cnc(NCCNc3ccc(C#N)cn3)nc2-c2ccc(Cl)cc2Cl)[nH]1 + CS(=O)(=O)CCNCc1ccc(-c2ccc3ncnc(Nc4ccc(OCc5cccc(F)c5)c(Cl)c4)c3c2)o1 [Lapatinib] (partner 2 µM) and answer again.
1.02

Now consider O=c1[nH]c2ccccc2n1C1CCN(CCCC(c2ccc(F)cc2)c2ccc(F)cc2)CC1 [Pimozide] + C[C@@H](Oc1cc(-c2cnn(C3CCNCC3)c2)cnc1N)c1c(Cl)ccc(F)c1Cl [Crizotinib] (partner 1 µM) and answer again.
0.797

Please report relative viability for every entry that follows.
1. Cc1cnc(-c2cnc(NCCNc3ccc(C#N)cn3)nc2-c2ccc(Cl)cc2Cl)[nH]1 + CC1(C)CCC(c2ccc(Cl)cc2)=C(CN2CCN(c3ccc(C(=O)NS(=O)(=O)c4ccc(N[C@H](CCN5CCOCC5)CSc5ccccc5)c(S(=O)(=O)C(F)(F)F)c4)cc3)CC2)C1 [Navitoclax] (partner 0.5 µM)
2. Cc1cnc(-c2cnc(NCCNc3ccc(C#N)cn3)nc2-c2ccc(Cl)cc2Cl)[nH]1 + CS(=O)(=O)N1CCN(Cc2cc3nc(-c4cccc5[nH]ncc45)nc(N4CCOCC4)c3s2)CC1 [Pictilisib] (partner 1 µM)
3. O=c1[nH]c2ccccc2n1C1CCN(CCCC(c2ccc(F)cc2)c2ccc(F)cc2)CC1 [Pimozide] + CS(=O)(=O)N1CCN(Cc2cc3nc(-c4cccc5[nH]ncc45)nc(N4CCOCC4)c3s2)CC1 [Pictilisib] (partner 1 µM)

1. 1.29
2. 0.487
3. 0.534
